testedTarget: recombinant human TFPI (tissue factor pathway inhibitor) (human, UniProt P10646 29-304)
testProtocol: cell-based or functional assay
readoutType: % of Normalized, TF/FVIIa/FX complex assay, Ab 100 nM (%)
Please state the figure in %; there is no need to write the unit.

As a guide, the following entries are already answered.
{"binder": "clone 3241 (antibody, V domains shown, scFv on yeast at selection; human IgG4/kappa IgG as purified; also called No. 3241 antibody) VH: EVQLVESGGGLVKPGGSLRLSCAASGFTFSSYAMNWVRQAPGKGLEWVSTITTGGSYTYYADSVEGRFTISRDNAKNSLYLQMNSLRAEDTAVYYCARQDGNFLMDYWGQGTLVTVSS VL: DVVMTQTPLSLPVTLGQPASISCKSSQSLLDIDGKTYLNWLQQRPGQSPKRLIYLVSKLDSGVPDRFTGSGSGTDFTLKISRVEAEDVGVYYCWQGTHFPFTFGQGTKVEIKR", "resultNumber": 102}
{"binder": "clone 3203 (antibody, V domains shown) VH: EVQLVESGGGLVKPGGSLRLSCAASGFTFSSYAMSWVRQAPGKGLEWVSTITTGGSYTYYADSVEGRFTISRDNAKNSLYLQMNSLRAEDTAVYYCARQDGNFLMDYWGQGTLVTVSS VL: DVVMTQTPLSLPVTLGQPASISCKSSQSLLDLDGKTYLNWLQQRPGQSPKRLIYLVSKLDSGVPDRFTGSGSGTDFTLKISRVEAEDVGVYYCWQGTHFPFTFGQGTKVEIKR", "resultNumber": 102}

Sample clone 1023 (antibody, V domains shown, scFv on yeast at selection; human IgG4/kappa IgG as purified) VH: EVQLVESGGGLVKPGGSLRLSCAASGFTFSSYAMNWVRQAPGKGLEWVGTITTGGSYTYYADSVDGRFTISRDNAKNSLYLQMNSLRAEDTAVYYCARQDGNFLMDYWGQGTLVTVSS VL: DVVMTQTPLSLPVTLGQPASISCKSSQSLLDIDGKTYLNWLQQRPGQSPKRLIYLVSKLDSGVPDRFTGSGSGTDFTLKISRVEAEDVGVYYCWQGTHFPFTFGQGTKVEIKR ; % of Normalized, TF/FVIIa/FX complex assay, Ab 100 nM observed: 103

% of Normalized, TF/FVIIa/FX complex assay, Ab 100 nM in this record for clone A67 (antibody, V domains shown) VH: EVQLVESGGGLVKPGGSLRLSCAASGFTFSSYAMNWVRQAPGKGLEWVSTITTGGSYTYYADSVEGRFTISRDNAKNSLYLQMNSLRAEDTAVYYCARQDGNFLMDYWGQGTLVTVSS VL: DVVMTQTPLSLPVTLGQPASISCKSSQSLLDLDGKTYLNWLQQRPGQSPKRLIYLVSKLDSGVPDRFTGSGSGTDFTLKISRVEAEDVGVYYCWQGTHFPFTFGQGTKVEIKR : 104
